Consider the following compounds and their measured IC50 readings.
Molecular target: JAK3 (Homo sapiens (Human))
Sequence (P52333 whole entry, species assumed): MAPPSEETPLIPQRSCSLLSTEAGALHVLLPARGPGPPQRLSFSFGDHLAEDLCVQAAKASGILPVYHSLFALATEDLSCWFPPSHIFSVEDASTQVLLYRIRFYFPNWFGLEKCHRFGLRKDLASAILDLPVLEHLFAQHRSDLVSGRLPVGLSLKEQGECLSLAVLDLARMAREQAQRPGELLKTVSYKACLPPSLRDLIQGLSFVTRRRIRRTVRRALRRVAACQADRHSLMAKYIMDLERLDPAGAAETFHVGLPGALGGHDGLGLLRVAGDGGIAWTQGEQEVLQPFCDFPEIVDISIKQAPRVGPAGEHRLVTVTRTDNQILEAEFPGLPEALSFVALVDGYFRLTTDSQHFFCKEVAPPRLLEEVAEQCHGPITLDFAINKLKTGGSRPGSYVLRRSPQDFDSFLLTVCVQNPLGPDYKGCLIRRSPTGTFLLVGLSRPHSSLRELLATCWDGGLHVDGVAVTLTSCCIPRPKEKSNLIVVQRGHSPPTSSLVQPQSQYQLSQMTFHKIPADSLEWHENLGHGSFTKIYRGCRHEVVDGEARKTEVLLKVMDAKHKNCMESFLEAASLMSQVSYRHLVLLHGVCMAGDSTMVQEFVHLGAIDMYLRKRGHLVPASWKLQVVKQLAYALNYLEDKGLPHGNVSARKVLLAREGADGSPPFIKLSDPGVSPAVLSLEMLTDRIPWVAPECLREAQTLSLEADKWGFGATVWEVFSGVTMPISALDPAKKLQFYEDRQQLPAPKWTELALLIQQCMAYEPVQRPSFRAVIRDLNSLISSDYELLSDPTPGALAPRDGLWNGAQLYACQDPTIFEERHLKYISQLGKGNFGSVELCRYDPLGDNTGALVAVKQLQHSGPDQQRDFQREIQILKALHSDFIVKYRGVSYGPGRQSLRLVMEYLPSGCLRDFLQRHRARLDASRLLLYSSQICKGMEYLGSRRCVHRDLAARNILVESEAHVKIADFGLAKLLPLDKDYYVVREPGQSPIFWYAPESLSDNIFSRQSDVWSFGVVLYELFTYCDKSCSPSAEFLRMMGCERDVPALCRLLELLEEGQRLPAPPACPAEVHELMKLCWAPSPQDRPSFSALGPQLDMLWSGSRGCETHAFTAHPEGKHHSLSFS
Assay: IC50 against JAK3
Assay type: biochemical

structure-smiles-string: C=CC(=O)N1CCCN(C(=O)c2cc(Sc3cnc(NC(=O)C4CC4)s3)c(C)cc2OC)C[C@H]1C
IC50: 1000 to 10000 nM
--
structure-smiles-string: C=CC(=O)N1CCN(C(=O)c2cc(Sc3cnc(NC(C)=O)s3)c(C)cc2OC)C(C)(C)C1
IC50: 100 to 1000 nM
--
structure-smiles-string: C=CC(=O)N1CCCN(C(=O)c2cc(Sc3cnc(NC(=O)C4CC4)s3)c(C)cc2C)C[C@H]1C
IC50: 1000 to 10000 nM
--
structure-smiles-string: C=CC(=O)N1CCN(C(=O)c2cc(Sc3cnc(Nc4ccccn4)s3)c(Cl)cc2C)CC1
IC50: 10 to 100 nM

Reference source for all entries: patent US11008314B2
